Target: T1, hIGF2R-ECD (Homo sapiens, UniProt P11717)
T1 construct: immobilized recombinant human extracellular domain of IGF2R (hIGF2R-ECD) was used
Assay: Competition assay with 13F11-A647 as reporter VHH on immobilized hIGF2R-ECD
Format: binding
Details: 10 nM 13F11-A647, 250 nM unconjugated competitor VHH
readout.type: competition with reporter VHH 13F11-A647

{"columns": ["molecule", "readout.type", "observed.value"],
 "data": [
  ["13A12: VHH single domain antibody targeting IGF2R, SEQ ID NO: 289 (protein) VHH: EVQLVESGGGLVQAGGSLRLSCAASGIIFGANTVGWYRQVPGKERDVVASITSGDSTYYGDSVRGRFTISRDNAKNTMYLQMNSLKPEDTAIYYCRARTTDGSYWGQGTQVTVS", "competition with reporter VHH 13F11-A647", "competed with 13F11"],
  ["13G10: VHH single domain antibody targeting IGF2R, SEQ ID NO: 305 (protein) VHH: EVQLVESGGGLVQAGGSLRLSCAASGLTFSSYTMAWYRQAPGKEREVVAAISSGDSIYHEDSVQGRFIISRDNAKNTVYLQMNSLKAEDTAVYYCRANGPGTYWGQGTQVTVSS", "competition with reporter VHH 13F11-A647", "competed with 13F11"]
]}
